Tested on: N. gonorrhoeae H041
measurementProtocol: Liquid broth MIC in Fastidious broth
Assay type: cell-based
recordedConditions: Neisseria gonorrhoeae, H041, read-out: Minimum Inhibitory Concentration, N. gonorrhoeae H041
Listed here: items and their measured MIC.

- compound: "CCN1CCN(C(=O)NC(C(=O)N[C@H]2Cc3cccc(C(=O)O)c3OB2O)c2cccc(O)c2)C(=O)C1=O (some centres unmarked) [Example 68]"
  MIC: "16 to 32 µg/mL"
- compound: "CCN1CCN(C(=O)NC(C(=O)N[C@H]2Cc3ccc(F)c(C(=O)O)c3OB2O)c2c(F)cc(O)cc2F)C(=O)C1=O (some centres unmarked) [Example 130]"
  MIC: "16 to 32 µg/mL"
- compound: "CCN1CCN(C(=O)NC(C(=O)N[C@H]2Cc3cccc(C(=O)O)c3OB2O)c2ccc(O)c(NS(C)(=O)=O)c2)C(=O)C1=O (some centres unmarked) [Example 22]"
  MIC: "> 64 µg/mL"
- compound: "O=C(O)c1ccc(C(NC(=O)N2CCN(CCNC(=O)c3ccc(O)c(O)c3Cl)C(=O)C2=O)C(=O)N[C@H]2Cc3ccc(F)c(C(=O)O)c3OB2O)cc1F (some centres unmarked) [Example 11]"
  MIC: "> 64 µg/mL"
- compound: "CCN1CCN(C(=O)NC(C(=O)N[C@H]2Cc3cccc(C(=O)O)c3OB2O)c2cc(F)c(C(=O)O)cc2F)C(=O)C1=O (some centres unmarked) [Example 137]"
  MIC: "16 to 32 µg/mL"
- compound: "O=C(O)c1cccc2c1OB(O)[C@@H](NC(=O)C(NC(=O)N1CCN(CCF)C(=O)C1=O)c1c(F)cc(O)cc1F)C2 (mixture of isomers) [Example 119]"
  MIC: "> 64 µg/mL"
- compound: "NCCN1CCN(C(=O)NC(C(=O)N[C@H]2Cc3cccc(C(=O)O)c3OB2O)c2ccc(C(=O)O)c(Cl)c2)C(=O)C1=O (some centres unmarked) [Example 153]"
  MIC: "> 64 µg/mL"
- compound: "CCN1CCN(C(=O)NC(C(=O)N[C@H]2Cc3cccc(C(=O)O)c3OB2O)c2c(Cl)cc(C(=O)O)cc2Cl)C(=O)C1=O (some centres unmarked) [Example 150]"
  MIC: "> 64 µg/mL"
- compound: "NC1(CN2CCN(C(=O)N[C@@H](C(=O)N[C@H]3Cc4cccc(C(=O)O)c4OB3O)c3c(F)cc(O)cc3F)C(=O)C2=O)CC1 (single isomer, unassigned) [Example 121]"
  MIC: "> 64 µg/mL"
- compound: "CCN1CCN(C(=O)NC(C(=O)N[C@H]2Cc3cccc(C(=O)O)c3OB2O)c2cc(Cl)c(O)c(Cl)c2)C(=O)C1=O (some centres unmarked) [Example 171]"
  MIC: "16 to 32 µg/mL"
- compound: "CCN1CCN(C(=O)NC(C(=O)N[C@H]2Cc3cccc(C(=O)O)c3OB2O)c2cc(NS(N)(=O)=O)ccc2F)C(=O)C1=O (some centres unmarked) [Example 197]"
  MIC: "16 to 32 µg/mL"
